# Test system: OVCAR-8 ovarian
# experimentSummary: NCI tumour cell line growth inhibition, 48 h
measuredProperty: TGI

Sample records with TGI:
CO/N=C(/C(=O)N(C(=O)/C(=N/OC)c1csc(NC(c2ccccc2)(c2ccccc2)c2ccccc2)n1)n1cnn(CC(=O)OC(C)(C)C)c1=O)c1csc(NC(c2ccccc2)(c2ccccc2)c2ccccc2)n1 : > 10 µM
C[C@]12CCc3nonc3C1CC[C@@H]1C2CC[C@]2(C)NC(=O)CCC12 (some centres undefined) : > 100 µM
CC(=O)OC(C)c1cc2c(s1)C(=O)c1scc(C(C)OC(C)=O)c1C2=O (centres undefined) : 0.546 µM

Next up:
Note to self: TGI recorded for O=C(CC(C(=O)c1ccco1)c1cccs1)c1cccs1 (centres undefined) was > 100 µM

====

Reported TGI is given for each of the following compounds.
# System: A498 renal
# experimentSummary: NCI tumour cell line growth inhibition, 48 h

Sample records with TGI:
O=C1c2ccccc2C(=Cc2ccccc2)c2ccccc21 : 9.52 µM
NCCCCN(CCCN)C(=O)c1ccccc1 : > 100 µM
CC(=O)c1cccc(NC(=O)C(=O)C(C2OC(=O)c3ccccc32)[N+](=O)[O-])c1 (stereo not drawn) : > 100 µM

Note to self: TGI recorded for "COc1ccc2c(c1)[n+]([O-])c(-c1ccccc1)c(N)[n+]2[O-]" was > 100 µM

Note to self: TGI recorded for "CN(C)c1ccc(/C=C(\C#N)c2nc3ccccc3n2C)cc1" was 6.82 µM

Note to self: TGI recorded for "CCCCCC(=O)Nc1nc[nH]c1C(N)=O" was > 100 µM

Note to self: TGI recorded for CCN1C(=O)NC(=O)C(C)(N2C(=O)c3c(F)c(F)c(F)c(F)c3C2=O)C1=O (stereo not drawn) was 32.9 µM

Note to self: TGI recorded for "CO/N=C(/C(=O)N(C(=O)/C(=N/OC)c1csc(NC(c2ccccc2)(c2ccccc2)c2ccccc2)n1)n1cnn(CC(=O)OC(C)(C)C)c1=O)c1csc(NC(c2ccccc2)(c2ccccc2)c2ccccc2)n1" was > 10 µM

====

# Test system: SK-MEL-2 melanoma
# experimentSummary: NCI tumour cell line growth inhibition, 48 h
measuredProperty: TGI

C=CCCCC1SC2=C(CC)CCCN2C1=O (stereo not given) : > 100 µM
CN(C)CCNC(=O)Cn1cc([N+](=O)[O-])c(=O)c2ccccc21 : > 100 µM
CC(O)C(N=Cc1nc(-c2ccccc2)oc1O)C(=O)O (stereo not given) : > 100 µM

Next up:
Note to self: TGI recorded for "CCN1C(NN)=NS(=O)(=O)c2ccccc21" was > 100 µM

====

Reported TGI is given for each of the following compounds.
# Test system: OVCAR-4 ovarian
# experimentSummary: NCI tumour cell line growth inhibition, 48 h

O=C1OCCC1C(O)C1c2ccccc2-c2ccccc21 (stereo not given) : > 100 µM

Note to self: TGI recorded for "CN=C(NC#N)NCCSCc1nc[nH]c1C" was > 100 µM

Note to self: TGI recorded for CCSC1(SCC)CC(Cc2ccc(OC)cc2)N(C=NC(C)(C)C)C1 (stereo not given) was > 100 µM

Note to self: TGI recorded for "CC(=O)OC[C@@H]1[C@H]2CC[C@]3(C)[C@@H](OC(C)=O)CC[C@H]3[C@@H]2CC[C@H]1C1(C)SCCS1" was > 25 µM

Note to self: TGI recorded for "N/C(=N\N=C\c1c[nH]c2cc(C(F)(F)F)ccc2c1=O)NO" was > 10 µM

Note to self: TGI recorded for COC1CCC(O)C(/C=C/[N+](=O)[O-])C1 (stereo not given) was 28.4 µM

Note to self: TGI recorded for "O=C(O)[C@@H]1CCC(=O)N1C(c1ccc2c(c1)OCO2)c1ccc2c(c1)OCO2" was > 100 µM

Note to self: TGI recorded for "CC(C)(C#N)c1cc(F)cc(C(=O)Nc2cc(Nc3ncccc3-c3ncnc4nc[nH]c34)ccc2F)c1" was > 10 µM

Note to self: TGI recorded for "CCOC(=O)Nc1cc2c(c(N)n1)N=C(c1ccccc1)[C@H](C)N2" was > 100 µM

Note to self: TGI recorded for CCOC(=O)CC1(O)CCCCC1(Sc1ccc(C)cc1)Sc1ccc(C)cc1 (stereo not given) was > 100 µM

Note to self: TGI recorded for "C/C(=N\N=C(\[Se])N1CCN(c2ccccn2)CC1)c1ccccn1" was 3.31 µM

Note to self: TGI recorded for "C=CCC(CC=O)(C(=O)OCC)C(=O)OCC" was > 100 µM

Note to self: TGI recorded for "CC/C=C\C/C=C\C[C@H](O)C/C=C1/C(=O)C=C[C@@H]1C/C=C\CCCC(=O)O" was 20 µM

Note to self: TGI recorded for "COc1c(NC(C)=O)cc(C)cc1NC(C)=O" was > 100 µM

====

Reported TGI is given for each of the following molecules.
# Test system: SF-539 CNS
# experimentSummary: NCI tumour cell line growth inhibition, 48 h

Sample records with TGI:
Cc1cc(=O)[nH]o1 : > 100 µM
CN=C(NC#N)NCCSCc1nc[nH]c1C : > 100 µM
O=C1C(Cl)=C(N2C(=O)CCCC2=O)C(=O)c2ccccc21 : 38 µM

Note to self: TGI recorded for "COc1cnc2c(c1)C(=O)c1c-2n(CCCN2CCC(O)CC2)c(=O)c2cc(F)ccc12" was 1.14 µM

Note to self: TGI recorded for "COC(=O)[C@]12CC[C@@H](C)[C@H](C)[C@@H]1C1=CC[C@@H]3[C@@]4(C)C(C=O)=C[C@@](C)(COC(=O)c5ccco5)[C@@H]4C(=O)C[C@@]3(C)[C@]1(C)CC2" was > 100 µM

Note to self: TGI recorded for "O=P1(c2ccccc2)c2ccccc2CCc2ccccc21" was > 100 µM

Note to self: TGI recorded for CCCCCC[C@H]1CC(=O)C2CCCC[C@@]23CC[C@H](CCl)N13 (some centres undefined) (tested in a mixture with another compound) was > 100 µM

Note to self: TGI recorded for "O=C(CCCN1CCOCC1)Nc1ccc(Cn2nnc3c2C(=O)c2nnn(Cc4ccc(NC(=O)CCCN5CCOCC5)cc4)c2C3=O)cc1" was 4.71 µM

Note to self: TGI recorded for "COc1ccc(N=Nc2c(-c3ccccc3)nn(C(=O)CC(=O)Nc3cccc(Cl)c3)c2-c2ccccc2)cc1" was > 100 µM

Note to self: TGI recorded for "C[C@@H]1CC[C@@H]2[C@@H]1[C@H](OC(=O)/C=C/c1ccccc1)[C@]1(C3CCCCC3)C[C@@H](NC(=O)CO)[C@@]2(C)O1" was 31.4 µM

Note to self: TGI recorded for CC(=O)c1cccc(NC(=O)C(=O)C(C2OC(=O)c3ccccc32)[N+](=O)[O-])c1 (centres undefined) was > 100 µM

Note to self: TGI recorded for "O=[N+]([O-])c1ccc2c(c1)Nc1c3ccccc3nc3cccc-2c13" was 44.3 µM

====

# System: UO-31 renal
# experimentSummary: NCI tumour cell line growth inhibition, 48 h
measuredProperty: TGI (µM)
Write it as a number; the unit µM goes unstated.

CCOC(=O)c1c2c(n(Cc3ccccc3)c1C)-c1ccccc1C(=O)C2=O : 31.6
O=C(CSC(c1ccccc1)c1ccccc1)N/N=C/c1cccc(Cl)c1 : 23.9

Note to self: TGI recorded for "C/C(=C\C1=C(Cl)C(=O)c2ccccc2C1=O)C(=O)O" was 28.9

Note to self: TGI recorded for C=C1CCCCCCCCCCC12SCCC2CCCCSC (stereo unspecified) was 60.4

====

# Tested on: SK-OV-3 ovarian
# experimentSummary: NCI tumour cell line growth inhibition, 48 h
Reported TGI is given for each of the following compounds.

"CCCCOC(=O)NC(Nc1ccc(S(=O)(=O)Nc2ccc(OC)nn2)cc1)(C(F)(F)F)C(F)(F)F" on SK-OV-3 ovarian gives TGI = > 100 µM

"Cc1cccc(C(=O)/C=C/SC(=NC#N)SCc2ccccc2)c1" on SK-OV-3 ovarian gives TGI = > 100 µM

"CN[C@@H](C)[C@@H](N)c1ccccc1" on SK-OV-3 ovarian gives TGI = > 100 µM

"C[C@@H]1CC[C@@H]2[C@@H]1[C@H](OC(=O)/C=C/c1ccccc1)[C@]1(C3CCCCC3)C[C@@H](NC(=O)CO)[C@@]2(C)O1" on SK-OV-3 ovarian gives TGI = 32.1 µM

"O=C1/C(=C/c2ccc(Cl)cc2)N=C(c2ccccc2)N1c1nc2ccccc2s1" on SK-OV-3 ovarian gives TGI = > 100 µM

====

Reported TGI is given for each of the following compounds.
# Test system: MOLT-4 leukemia
# experimentSummary: NCI tumour cell line growth inhibition, 48 h

Sample records with TGI:
C=CC(C=O)C1(O)CCOC(=O)/C1=C\N (centres undefined) : > 100 µM
CC1(C)OC(C[C@]2(C#N)C[C@H](CCl)OC(C)(C)O2)C[C@@H](C[C@]2(C#N)C[C@H](CCl)OC(C)(C)O2)O1 (some centres undefined) : > 100 µM
CCSC1(SCC)CC(Cc2ccc(OC)cc2)N(C=NC(C)(C)C)C1 (centres undefined) : 40.9 µM

Note to self: TGI recorded for "COc1ccc2nc3cc(Cl)ccc3c(N3CCN(c4ccnc(N5CCOCC5)n4)CC3)c2c1" was > 100 µM

Note to self: TGI recorded for "CCCCOC(=O)NC(Nc1ccc(S(=O)(=O)Nc2ccc(OC)nn2)cc1)(C(F)(F)F)C(F)(F)F" was > 100 µM

Note to self: TGI recorded for "CN(C)CCNC(=O)Cn1cc([N+](=O)[O-])c(=O)c2ccccc21" was > 100 µM
